assay: Aqueous solubility by 1H NMR; assay type: physicochemical; conditions: water; determined by 1H NMR
Non-standard residues stand in square brackets, D forms with d. Residues, ends and D or L forms follow the SMILES beside them. *: point of attachment. Cyclohexanoyl(1S,3S-3-NH2) = N[C@H]1CCC[C@H](C(=O)*)C1; Trp(5-OH) = N[C@@H](Cc1c[nH]c2ccc(O)cc12)C(=O)O; NH(4-morpholinophenyl) = c1cc(N2CCOCC2)ccc1N*; Bip = N[C@@H](Cc1ccc(-c2ccccc2)cc1)C(=O)O; hArg = N=C(N)NCCCC[C@H](N)C(=O)O; X1 = c1cc(N2CCNCC2)ccc1N*
Form field: solubility (one value per entry).

**Q:** Given C[C@@H](NC(=O)[C@H](CCCCNC(=N)N)NC(=O)[C@H](Cc1ccc(-c2ccccc2)cc1)NC(=O)[C@H](Cc1c[nH]c2ccc(O)cc12)NC(=O)[C@H]1CCC[C@H](N)C1)C(=O)Nc1ccc(N2CCOCC2)cc1 [150E7] ({Cyclohexanoyl(1S,3S-3-NH2)}-[Trp(5-OH)][Bip][hArg][dA]-{NH(4-morpholinophenyl)}) , respond with its solubility.
**A:** > 50 mM

**Q:** Report measured solubility; entry is N=C(N)NCCCC[C@H](NC(=O)[C@H](Cc1ccc(-c2ccccc2)cc1)NC(=O)[C@H](Cc1c[nH]c2ccc(O)cc12)NC(=O)[C@H]1CCC[C@H](N)C1)C(=O)NCC(=O)Nc1ccc(N2CCNCC2)cc1 [150E8] ({Cyclohexanoyl(1S,3S-3-NH2)}-[Trp(5-OH)][Bip][hArg]G-X1)
**A:** > 50 mM
